Assay: Hematology assays after subcutaneous administration in beagle dogs (Example 8)
Format: in vivo
Details: 30 mg/kg subcutaneous days 1, 3, 5, 8, 15, 22, 29
Procedure: There were 4 animals per group. Blood samples were collected from the cephalic vein or saphenous vein of each animal. About 0.5 mL of blood samples was put into tubes containing the potassium salt of EDTA. Blood obtained from all dog groups was measured using an ADVIA2120i hematology analyzer for measurements of the various blood cells, as well as other hematology markers.
Would you mind telling me the reported Hematocrit of each entry?
One number for each entry, in %.

Consider the worked cases shown below.
830121 (AGAATCAAGCCCTGGC; 3-10-3 cEt gapmer, further chemistry not given here) [compound 830121] :: 56
798781 (CGTAAGATTCACAGCA; 3-10-3 cEt gapmer, further chemistry not given here) [compound 798781] :: 48
790615 (CCAATGAGAATGCTTC; 3-10-3 cEt gapmer, further chemistry not given here) [compound 790615] :: 45
830037 (antisense CTATTGGCTGATCTGG; 3-10-3 cEt gapmer, further chemistry not given here) [compound 830037] :: 52
830025 (antisense TTTGTAAATCGAAAGC; 3-10-3 cEt gapmer, further chemistry not given here) [compound 830025] :: 43

# evaluate next
Lab note: 829994 (GGAGGCAGGGCCGCGA; 3-10-3 cEt gapmer, further chemistry not given here) [compound 829994] gave Hematocrit of 44

====

Would you mind telling me the reported Levels of TNF-α of each entry?
Test system: human peripheral blood mononuclear cells (PBMCs)
Experiment: Human PBMC activation assay, cytokine levels (IL-10, IL-6, MCP-1, TNF-α) in supernatant after 24 hours (Example 9)
Conditions: human PBMC supernatant after 24 hours; 0.064 μM oligonucleotide
Numbers only, in pg/mL.

Consider the worked cases shown below.
798781 (CGTAAGATTCACAGCA; 3-10-3 cEt gapmer, further chemistry not given here) [compound 798781] :: 3.3
830025 (antisense TTTGTAAATCGAAAGC; 3-10-3 cEt gapmer, further chemistry not given here) [compound 830025] :: 2.9

Lab note: 830121 (AGAATCAAGCCCTGGC; 3-10-3 cEt gapmer, further chemistry not given here) [compound 830121] gave Levels of TNF-α of 3.5

====

System: human SMAD7 mRNA
Experiment: Antisense inhibition of human SMAD7 mRNA expression in Hep3B cells by 3-10-3 cEt gapmers, 10,000 nM, electroporation (Example 2)
Format: cell-based
Conditions: Hep3B cells, electroporation with 10,000 nM antisense oligonucleotide, approximately 24 hours, SMAD7 mRNA by RT-PCR (RTS5062), relative to untreated control cells
Strand notation (5' to 3'): a small letter for the sugar, then the base; units joined by * are phosphorothioate-linked, units joined directly phosphodiester-linked; [ ] holds rarer units or linkages, { } end groups; capitals alone tell only the bases. k = constrained ethyl (cEt); [5mC] = 5-methylcytosine; d = 2'-deoxy (DNA)
Note to self: values exactly at 30% are 1.0. So % Inhibition at or above 30% is 1.0, below is 0.0.

// known answers, use as guide
830095 (kT*kG*kA*dG*dT*dA*dA*dA*d[5mC]*dA*dA*dT*dA*k[5mC]*k[5mC]*k[5mC]; antisense) [compound 830095] :: 1.0
799943 (antisense kT*kG*k[5mC]*d[5mC]*d[5mC]*dT*d[5mC]*dT*d[5mC]*dA*dG*dG*dG*kT*k[5mC]*kT) [compound 799943] :: 0.0
830084 (kG*kA*kT*dA*d[5mC]*dA*d[5mC]*dT*dT*dA*dA*dT*d[5mC]*kA*kA*kA; antisense) [compound 830084] :: 0.0
830027 (antisense kA*kA*k[5mC]*d[5mC]*dA*dT*dT*dT*dA*dT*d[5mC]*dT*dG*kG*kT*kG) [compound 830027] :: 0.0
799452 (antisense kA*kA*kA*dA*dG*dA*dA*d[5mC]*dA*d[5mC]*dA*dG*d[5mC]*kA*k[5mC]*kT) [compound 799452] :: 1.0

Please examine the following record next.
Could you please find out whether 830166 (antisense k[5mC]*kA*k[5mC]*dA*dG*d[5mC]*dT*dG*dT*dA*d[5mC]*d[5mC]*dA*kG*kG*kG) [compound 830166] has % Inhibition that meets 30% or exceeds it?
1.0

====

Would you mind telling me the reported % inhibition of SMAD7 mRNA expression of each entry?
System: human SMAD7 mRNA
Experiment: Antisense inhibition of human SMAD7 mRNA expression in Hep3B cells by 3-10-3 cEt gapmers, 10,000 nM, electroporation (Example 2)
Type: cell-based
Details: Hep3B cells, electroporation, 10,000 nM antisense oligonucleotide, approximately 24 hours, RTS5062, relative to untreated control cells
Strand notation (5' to 3'): a small letter for the sugar, then the base; units joined by * are phosphorothioate-linked, units joined directly phosphodiester-linked; [ ] holds rarer units or linkages, { } end groups; capitals alone tell only the bases. k = constrained ethyl (cEt); [5mC] = 5-methylcytosine; d = 2'-deoxy (DNA)
One number for each entry, in %.

799738 (antisense kT*k[5mC]*kA*dA*dA*dA*dA*dA*dT*dG*dT*d[5mC]*d[5mC]*k[5mC]*k[5mC]*kA) [compound 799738] :: 50

Provide the reported % inhibition of SMAD7 mRNA expression of each entry below, same order.
1. 799777 (kA*kG*kT*d[5mC]*dA*dG*d[5mC]*d[5mC]*dA*dG*dA*dA*dG*kG*kA*k[5mC]; antisense) [compound 799777]
2. 799654 (antisense kG*k[5mC]*kT*dG*dA*dA*dT*dA*dA*d[5mC]*d[5mC]*dT*dA*k[5mC]*kA*kA) [compound 799654]
3. 799796 (k[5mC]*kA*kT*dT*dA*dG*dA*dT*dA*d[5mC]*dT*dG*dT*k[5mC]*kT*kT; antisense) [compound 799796]
4. 799523 (antisense kG*kG*k[5mC]*dA*dG*dA*dA*dG*dG*d[5mC]*dT*d[5mC]*dT*k[5mC]*kT*k[5mC]) [compound 799523]
5. 799757 (antisense k[5mC]*k[5mC]*kG*dT*dT*dA*d[5mC]*dT*dG*dG*dA*d[5mC]*dA*k[5mC]*kA*kG) [compound 799757]

34
22
43
28
41

====

Tested on: human SMAD7 mRNA
Assay: Antisense inhibition of human SMAD7 mRNA expression in Hep3B cells by 3-10-3 cEt gapmers, 10,000 nM, electroporation (Example 2)
Type: cell-based
Conditions: Hep3B cells, electroporation with 10,000 nM antisense oligonucleotide, approximately 24 hours, primer probe set RTS5062, relative to untreated control cells
Strand notation (5' to 3'): a small letter for the sugar, then the base; units joined by * are phosphorothioate-linked, units joined directly phosphodiester-linked; [ ] holds rarer units or linkages, { } end groups; capitals alone tell only the bases. k = constrained ethyl (cEt); [5mC] = 5-methylcytosine; d = 2'-deoxy (DNA)
reported-endpoint: % Inhibition (%)
Give bare numbers, in %.

Consider the worked cases shown below.
799212 (kT*kT*kA*dT*dA*d[5mC]*dA*d[5mC]*dA*dT*dT*dG*d[5mC]*kA*k[5mC]*kA; antisense) [compound 799212] :: 35
798997 (antisense kG*k[5mC]*kA*d[5mC]*dA*d[5mC]*dT*d[5mC]*dA*d[5mC]*dA*d[5mC]*dT*k[5mC]*kA*k[5mC]) [compound 798997] :: 12

Lab note: 799221 (kT*kT*kT*dA*dA*dT*dT*dT*dG*dG*d[5mC]*dA*dT*kT*kT*kG; antisense) [compound 799221] gave % Inhibition of 0

====

System: human SMAD7 mRNA
Experiment: Dose-dependent inhibition of human SMAD7 mRNA expression in Hep3B cells (Example 3, Study 1 and 2)
Type: cell-based
Details: electroporation, Study 1 (312.5-20000 nM)
Strand notation (5' to 3'): a small letter for the sugar, then the base; units joined by * are phosphorothioate-linked, units joined directly phosphodiester-linked; [ ] holds rarer units or linkages, { } end groups; capitals alone tell only the bases. e = 2'-O-(2-methoxyethyl) (MOE); [5mC] = 5-methylcytosine; d = 2'-deoxy (DNA)
reported-endpoint: pIC50
One number for each entry, as −log10 of the molar value.

Consider the worked cases shown below.
771573 (antisense eG*e[5mC]*eT*eT*eG*dG*dG*dA*d[5mC]*dT*dG*d[5mC]*dA*dA*dA*e[5mC]*e[5mC]*eT*e[5mC]*eT) [compound 771573] :: 4.74
771795 (antisense e[5mC]*eG*eT*e[5mC]*eT*dG*d[5mC]*dG*dG*d[5mC]*dA*dA*dA*dA*d[5mC]*e[5mC]*e[5mC]*eA*e[5mC]*e[5mC]) [compound 771795] :: 5.10
771441 (e[5mC]*eG*eA*eG*eG*dG*d[5mC]*dG*dG*d[5mC]*dT*dG*d[5mC]*dG*d[5mC]*eA*eG*eG*e[5mC]*eT; antisense) [compound 771441] :: 5.05

Provide the reported pIC50 of each entry below, same order.
1. 771474 (antisense eG*e[5mC]*eA*eG*e[5mC]*d[5mC]*dG*dA*dT*dT*dT*dT*dG*d[5mC]*dT*e[5mC]*e[5mC]*eG*e[5mC]*eA) [compound 771474]
2. 771581 (antisense eG*eG*eG*eA*e[5mC]*d[5mC]*d[5mC]*d[5mC]*dA*dG*d[5mC]*d[5mC]*dG*d[5mC]*d[5mC]*eA*eG*e[5mC]*eT*eT) [compound 771581]

4.77
4.72
